# IC50 per record follows
Target Or System: DCN1 (DCUND1) protein PONY domain (Homo sapiens (Human), UniProt Q96GG9)
Sequence (Q96GG9 60-248): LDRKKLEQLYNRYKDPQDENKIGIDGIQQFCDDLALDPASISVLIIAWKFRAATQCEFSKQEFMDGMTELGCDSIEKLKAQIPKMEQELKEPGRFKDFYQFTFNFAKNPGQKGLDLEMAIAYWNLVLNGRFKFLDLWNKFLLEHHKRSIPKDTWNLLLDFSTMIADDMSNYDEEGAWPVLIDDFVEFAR
Assay Remarks: TR-FRET assay, DCN1 binding with FAM-labeled probe
Measurement Setup: 24 hr after treatment with compound; read-out: TR FRET IC50 24 hr

Some entries whose results are on file:
Compound	Observed Value
N#C[C@@H]1C[C@H]2C[C@H]2N1C(=O)c1nn(C2CCOCC2)c2c1[C@H](C1CC1)[C@H](NC(=O)c1cccc(C(F)(F)F)c1)C(=O)N2 (mixture of isomers) [Compound I-385]	≤ 200 nM
CCN1C(=O)[C@@H](NC(=O)c2cccc(C(F)(F)F)c2)[C@@H](c2ccc(F)cc2)c2c(CN(C)C#N)nn(-c3ccccc3)c21 [Compound I-92]	≤ 200 nM
CCN1C(=O)[C@@H](NC(=O)c2cccc(C(F)(F)F)c2)[C@@H](c2ccc(F)cc2)c2c(C(=O)N3CCS(=O)(=O)C[C@H]3C#N)nn(C3CCOCC3)c21 (mixture of isomers) [Compound I-436]	≤ 200 nM

## Task For the compound CCN1C(=O)[C@@H](NC(=O)c2cnc(C(F)(F)F)s2)[C@@H](C2CC2)c2c(C(=O)N3[C@H](C#N)C[C@H]4C[C@H]43)nn(C3CCOCC3)c21 [Compound I-513] , what IC50 is on record?
## Result 1000 to 3000 nM

## Task Can you handle CCN1C(=O)[C@H](NC(=O)c2cccc(C(F)(F)F)c2)[C@H](c2ccc(F)cc2)c2c(C(=O)N3CCNC[C@@H]3C#N)nn(-c3ccccc3)c21 [Compound I-534] next?
## Result 1000 to 3000 nM
